Each recorded value in this set is attributed to PubChem BioAssay (NCATS).

- measurementProtocol: qHTS of pediatric cancer cell lines to identify multiple opportunities for drug repurposing: Primary screen for NB-EBc1 cells (AID 1347095)
- cond: NB-EBc1 neuroblastoma viability, CellTiter-Glo luminescence, 48 h; series mostly up to 46 µM
Inconclusive results are not listed. Active and inactive are the calls of the source. Calls come from the whole dose curve; as a rule, active = well fitted cell-killing curve with a large enough effect; inconclusive = small, poorly fitted or top-dose-only effect; inactive = no such curve, though single readings can be large or run the other way.
Return exactly one item of Yes for active, No for inactive

Worked cases, answers included:
INSERT INTO results (molecule, discretelabel) VALUES
  ('C[C@H]1O[C@@H](O[C@H]2CC[C@@]3(C)[C@H](CC[C@@H]4[C@@H]3C[C@@H](O)[C@]3(C)[C@@H](C5=CC(=O)OC5)CC[C@]43O)C2)C[C@H](O)[C@@H]1O[C@H]1C[C@H](O)[C@H](O[C@H]2C[C@H](O)[C@H](O[C@@H]3O[C@H](CO)[C@@H](O)[C@H](O)[C@H]3O)[C@@H](C)O2)[C@@H](C)O1', 'Yes'),
  ('CC(=O)OC[C@H]1O[C@@H](n2ncc(=O)[nH]c2=O)[C@H](OC(C)=O)[C@@H]1OC(C)=O', 'Yes'),
  ('CCCCCCCCOc1ccc(C(=O)c2ccccc2)c(O)c1', 'No'),
  ('O=C1c2cccc3c2[C@H](CCC3)CN1[C@@H]1CN2CCC1CC2', 'No'),
  ('O=S(=O)(O)c1ccc(O)cc1', 'No');

Enquiry: Write down the call the test reported for this molecule. Item: CN(C)CCOC(=O)C(c1ccccc1)C1(O)CCCC1 (stereo unspecified)
Return: No

Enquiry: Write down the call the test reported for this molecule. Item: NS(=O)(=O)c1cc2c(cc1Cl)NC(CC1CCCC1)NS2(=O)=O (stereo unspecified)
Return: No

Enquiry: Write down the call the test reported for this molecule. Item: "COc1ccc(CCN(C)CCCN2CCc3cc(OC)c(OC)cc3CC2=O)cc1OC"
Return: No

Enquiry: Write down the call the test reported for this molecule. Item: "CN(C)C(=O)Nc1ccc(Cl)c(Cl)c1"
Return: No

Enquiry: Write down the call the test reported for this molecule. Item: "O=C(O)C1(C(=O)O)CCC1.[NH2-].[NH2-].[Pt+2]"
Return: No

Enquiry: Write down the call the test reported for this molecule. Item: "FC(F)(F)C(F)(F)C(F)(F)C(F)(F)C(F)(F)C(F)(F)C(F)(F)C(F)(F)Br"
Return: No

Enquiry: Write down the call the test reported for this molecule. Item: "O=C1[C@H](CC[C@H](O)c2ccc(F)cc2)[C@@H](c2ccc(O)cc2)N1c1ccc(F)cc1"
Return: No

Enquiry: Write down the call the test reported for this molecule. Item: "CN(C)CCN1C(=O)c2ccccc2N(C)c2ccccc21"
Return: No

Enquiry: Write down the call the test reported for this molecule. Item: "Cc1cccc(C)c1NC(=O)c1ccccc1C(=O)O"
Return: No

Enquiry: Write down the call the test reported for this molecule. Item: COP(=O)(OC)OC(c1ccc(Cl)cc1)P(=O)(OC)OC (stereo unspecified)
Return: No

Enquiry: Write down the call the test reported for this molecule. Item: "CC(C)(C)NC[C@H](O)COc1nsnc1N1CCOCC1"
Return: No
